target: human Aβ antigen (human); assay: cell-based or functional assay
Sequence (peptide, as listed by the source): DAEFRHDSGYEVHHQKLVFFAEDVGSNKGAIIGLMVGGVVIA
Observation Type: relative value of LDH release (SHSY5Y cells with Aβ; hIgG = 1.00)
Would you mind answering with just the numeric figure?

Worked cases, relative value of LDH release (SHSY5Y cells with Aβ; hIgG = 1.00) given:
>>> obs_value("066-4.26.14H5L2 (antibody, V domains shown) VH: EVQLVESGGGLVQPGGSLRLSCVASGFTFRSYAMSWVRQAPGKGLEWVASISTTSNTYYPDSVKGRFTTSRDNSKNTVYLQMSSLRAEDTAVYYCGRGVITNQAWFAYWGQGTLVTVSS VL: DIVLTQSPATLSVSPGERATLSCRASQSISNNLHWYQQKPGQAPRLLIKYASQSISGIPARFSGSGSGTDFTLTISSLQSEDFAVYFCQQSNSWPLTFGGGTKVEIK")
1.26
>>> obs_value("066-4.26.14H4L2 (antibody, V domains shown) VH: EVQLVESGGGLVQPGGSLRLSCAASGFTFRSYAMSWVRQAPGKGLEWVASISTTSNTYYPDSVKGRFTTSRDNAKNSVYLQMSSLRDEDTAMYYCGRGVITNQAWFAYWGQGILVTVSS VL: DIVLTQSPATLSVSPGERATLSCRASQSISNNLHWYQQKPGQAPRLLIKYASQSISGIPARFSGSGSGTDFTLTISSLQSEDFAVYFCQQSNSWPLTFGGGTKVEIK")
1.3

Proceeding to the next binder to report its relative value of LDH release (SHSY5Y cells with Aβ; hIgG = 1.00).
Record 066-4.26.14 (antibody, V domains shown) VH: EVKLVESGGGLVKPGGSLKLSCAASGFTFRSYAMSWVRQTPEKRLEWVASISTTSNTYYPDSVKGRFTTSRDNARNIVYLQMSSLRSDDTAMYYCGRGVITNQAWFAYWGQGTLVTVSA VL: DIVLTQSPATLSVTPGDSVSLSCRASQSISNNLHWYQQKSHESPRLLIKYASQSISGIPSRFSGSGSGTDFTLSVNNVGTEDFGMYFCQQSNSWPLTFGAGTKLELK . Reported relative value of LDH release (SHSY5Y cells with Aβ; hIgG = 1.00): 1.2
